Biological target: B. floridae GnRHR1 (Branchiostoma floridae, UniProt C0IP19)
Sequence (C0IP19 1-403): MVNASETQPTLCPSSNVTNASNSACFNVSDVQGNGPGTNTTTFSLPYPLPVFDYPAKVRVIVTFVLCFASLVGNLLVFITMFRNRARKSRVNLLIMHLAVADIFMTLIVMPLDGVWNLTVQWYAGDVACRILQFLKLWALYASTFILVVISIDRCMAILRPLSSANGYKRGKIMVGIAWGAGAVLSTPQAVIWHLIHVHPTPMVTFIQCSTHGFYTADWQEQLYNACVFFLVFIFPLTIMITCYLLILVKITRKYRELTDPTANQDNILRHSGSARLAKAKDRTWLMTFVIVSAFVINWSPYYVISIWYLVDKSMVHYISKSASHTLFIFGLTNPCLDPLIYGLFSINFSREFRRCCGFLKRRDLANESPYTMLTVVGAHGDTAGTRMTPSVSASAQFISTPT
Assay: Luminescence response in HEK293-G5a cells expressing B. floridae GnRHR1 (with Gαqi9)
Assay type: cell-based
Details: fig. 2D; HEK293-G5a, Gαqi9; 10^−4 M to 10^−12 M in DMEM; luminescence integrated over 65 s; normalized to maximum response; four-parameter curve; minimum of two independent transfections; read-out: EC50 values for the dose–response curves, GnRHR1
Ends that are not written are not given here.
assay_metric: EC50 (nM)

YSYSYGFAP-NH2 ... 3.2
